The measured values listed here are drawn from patent US20120277164A1.

- TEST_SYSTEM: T1, Gadd45β/MKK7 complex (biotin-hGadd45β with coated GST-MKK7, ELISA format) (human) (UniProt O75293)
- T1 sequence (biotinylated (sites not stated), looked up) 1: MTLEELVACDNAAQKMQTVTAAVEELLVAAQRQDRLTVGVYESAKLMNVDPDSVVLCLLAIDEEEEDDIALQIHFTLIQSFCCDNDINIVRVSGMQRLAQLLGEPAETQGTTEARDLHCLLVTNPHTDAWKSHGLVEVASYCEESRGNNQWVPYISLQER
- T1 sequence (biotinylated (sites not stated), looked up) 2: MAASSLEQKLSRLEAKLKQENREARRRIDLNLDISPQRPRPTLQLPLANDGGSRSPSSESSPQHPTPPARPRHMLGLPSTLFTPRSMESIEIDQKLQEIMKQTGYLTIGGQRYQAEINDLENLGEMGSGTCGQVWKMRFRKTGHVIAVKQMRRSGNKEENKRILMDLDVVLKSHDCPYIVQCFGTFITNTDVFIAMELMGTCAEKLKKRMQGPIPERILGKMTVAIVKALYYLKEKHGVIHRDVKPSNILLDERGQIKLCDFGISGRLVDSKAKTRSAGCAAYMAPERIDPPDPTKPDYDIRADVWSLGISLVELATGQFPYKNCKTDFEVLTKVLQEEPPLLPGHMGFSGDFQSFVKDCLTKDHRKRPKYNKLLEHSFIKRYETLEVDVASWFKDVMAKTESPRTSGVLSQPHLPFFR
- ASSAY_PROTOCOL: competition ELISA after 48-hr pre-incubation of the peptide with human serum at 37 °C
Square brackets hold non-standard residues; d marks the D form. * marks the point of attachment. Cbz = O=C(OCc1ccccc1)*
In this section, each of the binders is paired with its reported IC50.

| BINDER | VALUE_UNIT | IC50 |
| --- | --- | --- |
| Cbz-[dY][dE][dR][dF]-NH2 [Z-DTP2 (Z-D-Tyr-D-Glu-D-Arg-D-Phe-NH2)] | pM | 180 |
| Cbz-[dY][dD][dH][dF]-NH2 [Z-Tyr-Asp-His-Phe-NH2 (Z-DTP1)] | pM | 190 |
